Target: αEβ7 (Homo sapiens, UniProt P26010+P38570)
Construct: DNA encoding full-length alpha E was identified as follows; expressed in transfected cells; host or cells: JY cells, plasmid pMHneo/aE
Sequence (P38570 19-1179): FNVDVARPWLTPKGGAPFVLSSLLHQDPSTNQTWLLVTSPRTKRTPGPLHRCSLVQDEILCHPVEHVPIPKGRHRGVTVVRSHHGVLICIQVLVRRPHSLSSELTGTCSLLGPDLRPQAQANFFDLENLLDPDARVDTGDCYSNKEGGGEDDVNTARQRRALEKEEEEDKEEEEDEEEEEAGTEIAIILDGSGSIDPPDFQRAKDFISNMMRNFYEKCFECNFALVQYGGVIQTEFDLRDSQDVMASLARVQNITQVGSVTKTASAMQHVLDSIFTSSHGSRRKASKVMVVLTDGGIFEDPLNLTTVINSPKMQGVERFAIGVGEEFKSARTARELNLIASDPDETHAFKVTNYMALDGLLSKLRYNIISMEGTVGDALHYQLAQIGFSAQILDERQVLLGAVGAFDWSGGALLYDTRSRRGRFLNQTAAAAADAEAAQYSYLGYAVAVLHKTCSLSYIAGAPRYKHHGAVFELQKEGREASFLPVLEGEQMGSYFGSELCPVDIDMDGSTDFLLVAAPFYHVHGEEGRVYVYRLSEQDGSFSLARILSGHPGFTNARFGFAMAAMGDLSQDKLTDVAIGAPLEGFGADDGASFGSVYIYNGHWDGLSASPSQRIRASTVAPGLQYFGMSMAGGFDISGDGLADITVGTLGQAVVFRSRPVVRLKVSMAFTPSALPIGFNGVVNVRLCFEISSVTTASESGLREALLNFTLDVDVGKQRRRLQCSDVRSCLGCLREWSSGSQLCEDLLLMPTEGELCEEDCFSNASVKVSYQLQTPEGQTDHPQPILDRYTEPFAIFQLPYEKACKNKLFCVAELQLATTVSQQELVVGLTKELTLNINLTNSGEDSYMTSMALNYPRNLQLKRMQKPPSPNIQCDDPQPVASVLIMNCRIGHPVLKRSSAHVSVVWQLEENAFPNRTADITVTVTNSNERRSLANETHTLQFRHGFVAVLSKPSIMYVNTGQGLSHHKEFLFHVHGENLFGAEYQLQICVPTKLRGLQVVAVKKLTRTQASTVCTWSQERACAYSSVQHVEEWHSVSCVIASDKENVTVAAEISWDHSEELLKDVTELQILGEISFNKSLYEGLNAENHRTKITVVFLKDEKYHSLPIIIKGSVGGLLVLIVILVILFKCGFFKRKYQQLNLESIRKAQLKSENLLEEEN
Sequence (P26010 20-798 partner): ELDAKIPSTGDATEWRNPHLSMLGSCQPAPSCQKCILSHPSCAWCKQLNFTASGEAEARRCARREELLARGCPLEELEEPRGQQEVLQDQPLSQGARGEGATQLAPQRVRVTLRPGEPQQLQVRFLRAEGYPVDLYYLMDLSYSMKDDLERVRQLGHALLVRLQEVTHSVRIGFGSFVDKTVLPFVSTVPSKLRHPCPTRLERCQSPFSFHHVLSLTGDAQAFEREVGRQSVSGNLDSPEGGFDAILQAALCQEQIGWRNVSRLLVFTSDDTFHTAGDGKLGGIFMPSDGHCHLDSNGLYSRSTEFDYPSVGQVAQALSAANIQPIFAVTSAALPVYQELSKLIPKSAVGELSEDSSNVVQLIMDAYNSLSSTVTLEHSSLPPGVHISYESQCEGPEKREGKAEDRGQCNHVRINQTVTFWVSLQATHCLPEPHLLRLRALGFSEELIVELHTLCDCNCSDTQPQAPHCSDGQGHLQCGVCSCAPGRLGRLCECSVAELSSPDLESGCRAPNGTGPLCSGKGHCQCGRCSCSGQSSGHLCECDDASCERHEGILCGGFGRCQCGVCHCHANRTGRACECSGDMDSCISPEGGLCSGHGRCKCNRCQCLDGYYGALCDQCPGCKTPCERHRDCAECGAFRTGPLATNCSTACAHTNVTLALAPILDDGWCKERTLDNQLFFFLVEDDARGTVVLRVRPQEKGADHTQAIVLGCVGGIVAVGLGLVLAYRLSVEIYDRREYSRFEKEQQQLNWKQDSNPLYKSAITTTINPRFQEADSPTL
Assay: JY/aE+ cell adhesion to E-cadherin/Ig
Assay type: cell-based
Conditions: PMA-treated JY cells; read-out: E-cadher αEβ7 IC50
IC50 values by entry
parameter.measured: IC50

>>> print(df.to_string())
                                   compound  measured_result
0  O=C(NCc1cccnc1)c1ccccc1C(=O)Nc1sc2ccccc2c1Cl             3 µM
1  CC(CN(C)C)NCc1ccccc1Sc1ccc(C(C)(C)C)cc1 (stereo not shown)             3 µM
2  CC(=O)Oc1ccccc1C(=O)n1c(-c2ccccc2)cc2ccccc21             3 µM
3  Nc1ccc(Sc2ccc(NC(=O)CCc3ccccc3)cc2)c(Cl)c1             5 µM
